src = patent US20220153746A1

test: TD Phase (Groups 1 and 3): plasma and ocular tissue concentrations and pharmacokinetics of Compound 18 and its metabolite Compound 4 after once daily ocular instillation of Compound 18 nanosuspension for 7 days; assay type: in vivo, New Zealand white rabbits; settings: male, New Zealand white, rabbit, sclera/choroid, other: ocular instillation (eye drop), 0.798 mg/kg/day, TD Phase, Group 1, 1 h, individual animals; read-out: Final Compound 4 Sclera/Choroid Conc.

# compound, concentration at 1 h (ng/g)
rows = [
    ("CCCc1nn(C)c2c(=O)[nH]c(-c3cc(S(=O)(=O)N4CC(CCCO)C4)ccc3OCC)nc12 [Compound 4]", 136),
]

###

assay: TD Phase (Groups 1 and 3): plasma and ocular tissue concentrations and pharmacokinetics of Compound 18 and its metabolite Compound 4 after once daily ocular instillation of Compound 18 nanosuspension for 7 days; format: in vivo, New Zealand white rabbits; settings: male, New Zealand white, rabbit, topical or ocular; Plasma; Day 7; Compound 18 0.8 mg/kg ocular instillation once daily; Groups 1 and 3

# compound, Tmax (min)
records = [
    ("CCCc1nn(C)c2c(=O)[nH]c(-c3cc(S(=O)(=O)N4CC(CCCO)C4)ccc3OCC)nc12 [Compound 4]", 30),
]
